The origin of these recorded values is PubChem BioAssay AID1159580.

Assay: chemical genetic growth profiling, strain panel (AID 1159580);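 also: tested at 20 µM; growth read once vehicle control cultures reached saturation at 30 °C; lower values mean less growth of the strain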
Settings: S. cerevisiae deletion strains, growth OD, locus YJR075W, strain HOC1, hits give low values
In all, about 5,500 compounds went through this assay and about 2,000 (36%) were called active. Roughly 18% stayed inconclusive and do not appear here. This is one part of the list.
normalized growth strictly under 1 means Satisfied; at 1 or over means Not satisfied.

Take a look at these entries with their results.
CN1CCC[C@@H]1CCO[C@](C)(c1ccccc1)c1ccc(Cl)cc1 = Satisfied
CC(C)N(CCC(=O)c1ccc2ccccc2c1)Cc1ccccc1 = Satisfied

Exercise: API: query returns whether the molecule falls strictly under 1 in normalized growth. Query: O=C(Nc1cc(C(F)(F)F)cc(C(F)(F)F)c1)C(c1ccccc1)C1CCCC1 (stereo unspecified)
Solution: Not satisfied
